target: RIOK1 (Homo sapiens); construct: endogenous in cells; experiment: KAM-matrix competition in K562 lysate; details: KAM 0.001-10 uM, read-out: RB50 (the source's name)
MEASURE_NAME: IC50

N#CCc1ccc(Nc2nc(NCCCN)cc(Nc3cc(C4CC4)[nH]n3)n2)cc1 [KAM]    > 10 µM

###

target: CDC42BPA (Homo sapiens); construct: endogenous in cells; test: KAM-matrix competition in K562 lysate; details: KAM 0.001-10 uM, read-out: RB50 (the source's name)
MEASURE_NAME: IC50

N#CCc1ccc(Nc2nc(NCCCN)cc(Nc3cc(C4CC4)[nH]n3)n2)cc1    > 10 µM

###

molecular target: LATS1 (Homo sapiens); construct: endogenous in cells; host or cells: K562; assay: KAM-matrix competition in K562 lysate; type: binding; settings: read-out: RB50 (the source's name)
pIC50: −log10 of the molar value.
MEASURE_NAME: pIC50

N#CCc1ccc(Nc2nc(NCCCN)cc(Nc3cc(C4CC4)[nH]n3)n2)cc1    6.69

###

Target: NEK1 (Homo sapiens)
Construct: endogenous in cells
Sequence (Q96PY6 1-1258): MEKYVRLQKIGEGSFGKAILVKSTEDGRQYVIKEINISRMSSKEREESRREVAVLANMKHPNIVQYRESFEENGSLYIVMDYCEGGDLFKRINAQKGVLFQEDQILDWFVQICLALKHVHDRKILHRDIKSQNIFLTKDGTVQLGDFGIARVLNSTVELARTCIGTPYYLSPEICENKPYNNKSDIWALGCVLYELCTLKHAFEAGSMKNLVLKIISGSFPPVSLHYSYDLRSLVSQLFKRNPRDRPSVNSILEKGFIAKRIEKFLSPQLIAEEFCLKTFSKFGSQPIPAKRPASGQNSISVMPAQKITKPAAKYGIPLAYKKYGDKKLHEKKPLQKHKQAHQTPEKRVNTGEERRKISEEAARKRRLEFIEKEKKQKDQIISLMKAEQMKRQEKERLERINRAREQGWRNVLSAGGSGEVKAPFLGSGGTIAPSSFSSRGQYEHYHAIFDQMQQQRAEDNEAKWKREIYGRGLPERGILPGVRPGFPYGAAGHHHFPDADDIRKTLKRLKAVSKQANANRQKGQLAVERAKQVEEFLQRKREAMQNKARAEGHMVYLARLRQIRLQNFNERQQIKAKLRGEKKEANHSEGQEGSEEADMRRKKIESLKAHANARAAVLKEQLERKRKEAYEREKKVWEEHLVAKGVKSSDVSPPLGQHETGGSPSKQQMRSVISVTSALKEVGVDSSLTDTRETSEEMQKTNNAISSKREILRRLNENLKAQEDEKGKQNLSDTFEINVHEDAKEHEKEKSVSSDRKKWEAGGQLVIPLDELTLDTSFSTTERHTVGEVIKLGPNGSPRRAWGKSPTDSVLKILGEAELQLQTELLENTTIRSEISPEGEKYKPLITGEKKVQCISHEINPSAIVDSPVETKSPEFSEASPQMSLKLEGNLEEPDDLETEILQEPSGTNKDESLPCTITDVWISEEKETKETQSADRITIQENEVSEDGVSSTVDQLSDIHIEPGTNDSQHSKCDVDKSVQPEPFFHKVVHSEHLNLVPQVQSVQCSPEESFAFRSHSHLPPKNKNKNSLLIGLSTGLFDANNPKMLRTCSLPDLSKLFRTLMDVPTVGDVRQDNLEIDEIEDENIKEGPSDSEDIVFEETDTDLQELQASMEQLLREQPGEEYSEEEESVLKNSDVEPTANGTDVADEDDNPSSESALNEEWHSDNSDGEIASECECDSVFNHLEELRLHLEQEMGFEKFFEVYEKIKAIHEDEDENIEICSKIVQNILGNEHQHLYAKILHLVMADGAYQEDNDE
Assay: KAM-matrix competition in K562 lysate
Conditions: read-out: RB50 (the source's name)
pIC50: −log10 of the molar value.
MEASURE_NAME: pIC50

N#CCc1ccc(Nc2nc(NCCCN)cc(Nc3cc(C4CC4)[nH]n3)n2)cc1 [KAM]    5.47

###

biological target: HIPK2 (Homo sapiens, UniProt Q9H2X6); construct: endogenous in cells; assay: KAM-matrix competition in K562 lysate; conditions: read-out: RB50 (the source's name)
MEASURE_NAME: IC50 (µM)

N#CCc1ccc(Nc2nc(NCCCN)cc(Nc3cc(C4CC4)[nH]n3)n2)cc1    4.26

###

target: VRK3 (Homo sapiens); construct: endogenous in cells; test: Imatinib-matrix competition in K562 lysate; settings: read-out: RB50 (the source's name)
pIC50: −log10 of the molar value.
MEASURE_NAME: pIC50

Cc1ccc(NC(=O)c2ccc(CN3CCN(C)CC3)cc2)cc1Nc1nccc(-c2cccnc2)n1    < 5.00

###

target: CDC7 (Homo sapiens, UniProt O00311); construct: endogenous in cells; host or cells: K562 lysate; assay: KAM-matrix competition in K562 lysate; type: binding; details: KAM 0.001-10 uM, read-out: RB50 (the source's name)
MEASURE_NAME: IC50

N#CCc1ccc(Nc2nc(NCCCN)cc(Nc3cc(C4CC4)[nH]n3)n2)cc1    > 10 µM

###

target: PRPF4B (Homo sapiens); construct: endogenous in cells; assay: KAM-matrix competition in K562 lysate; details: read-out: RB50 (the source's name)
pIC50: −log10 of the molar value.
MEASURE_NAME: pIC50

N#CCc1ccc(Nc2nc(NCCCN)cc(Nc3cc(C4CC4)[nH]n3)n2)cc1    5.85

###

biological target: ATR (Homo sapiens); construct: endogenous in cells; host or cells: K562; test: KAM-matrix competition in K562 lysate; format: binding; conditions: KAM 0.001-10 uM, read-out: RB50 (the source's name)
pIC50: −log10 of the molar value.
MEASURE_NAME: pIC50

N#CCc1ccc(Nc2nc(NCCCN)cc(Nc3cc(C4CC4)[nH]n3)n2)cc1 [KAM]    < 5.00

###

molecular target: JAK1 (Homo sapiens, UniProt P23458); construct: endogenous in cells; assay: KAM-matrix competition in K562 lysate; details: read-out: RB50 (the source's name)
MEASURE_NAME: IC50 (nM)

N#CCc1ccc(Nc2nc(NCCCN)cc(Nc3cc(C4CC4)[nH]n3)n2)cc1    518

###

molecular target: STK38 (Homo sapiens, UniProt Q15208); construct: endogenous in cells; assay: KAM-matrix competition in K562 lysate; conditions: read-out: RB50 (the source's name)
MEASURE_NAME: IC50 (nM)

N#CCc1ccc(Nc2nc(NCCCN)cc(Nc3cc(C4CC4)[nH]n3)n2)cc1    752

###

target: PDPK1 (Homo sapiens, UniProt O15530); construct: endogenous in cells; test: KAM-matrix competition in K562 lysate; conditions: KAM 0.001-10 uM, read-out: RB50 (the source's name)
pIC50: −log10 of the molar value.
MEASURE_NAME: pIC50

N#CCc1ccc(Nc2nc(NCCCN)cc(Nc3cc(C4CC4)[nH]n3)n2)cc1 [KAM]    < 5.00

###

biological target: CHD5 (Homo sapiens, UniProt Q8TDI0); construct: endogenous in cells; assay: Imatinib-matrix competition in K562 lysate; settings: read-out: RB50 (the source's name)
MEASURE_NAME: IC50

Cc1ccc(NC(=O)c2ccc(CN3CCN(C)CC3)cc2)cc1Nc1nccc(-c2cccnc2)n1    > 10 µM

###

target: CIT (Homo sapiens); construct: endogenous in cells; test: KAM-matrix competition in K562 lysate; conditions: KAM 0.001-10 uM, read-out: RB50 (the source's name)
MEASURE_NAME: IC50

N#CCc1ccc(Nc2nc(NCCCN)cc(Nc3cc(C4CC4)[nH]n3)n2)cc1    > 10 µM

###

Target: ACVR1 (Homo sapiens, UniProt Q04771)
Construct: endogenous in cells
Test: KAM-matrix competition in K562 lysate
Settings: read-out: RB50 (the source's name)
Protocol: Supplement 12953_2017_125_MOESM1_ESM.zip/MS_Supp Info.xlsx, sheet "KAM" | column: 10 uM KAM; 1 uM KAM; 0.1 uM KAM; 0.01 uM KAM; 0.001 uM KAM; RB50
MEASURE_NAME: IC50

N#CCc1ccc(Nc2nc(NCCCN)cc(Nc3cc(C4CC4)[nH]n3)n2)cc1 [KAM]    27 nM

###

target: PAK6 (Homo sapiens); construct: endogenous in cells; experiment: KAM-matrix competition in K562 lysate; conditions: read-out: RB50 (the source's name)
MEASURE_NAME: IC50

N#CCc1ccc(Nc2nc(NCCCN)cc(Nc3cc(C4CC4)[nH]n3)n2)cc1 [KAM]    0.519 µM

###

target: PBK (Homo sapiens, UniProt Q96KB5); construct: endogenous in cells; host or cells: K562; assay: Imatinib-matrix competition in K562 lysate; format: binding; conditions: read-out: RB50 (the source's name)
MEASURE_NAME: IC50

Cc1ccc(NC(=O)c2ccc(CN3CCN(C)CC3)cc2)cc1Nc1nccc(-c2cccnc2)n1    > 10 µM
